- target: T1, His6-MBP-PHD3 (PHD3 domain of histone demethylase KDM5A) (UniProt P29375 1609-1659)
- T1 chain: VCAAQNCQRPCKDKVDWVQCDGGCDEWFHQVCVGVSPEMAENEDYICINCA
- measurement_description: FP
Square brackets hold non-standard residues; d marks the D form. Ends that are not written are not given here. Lys(Me3) = C[N+](C)(C)CCCC[C@H](N)C(=O)O; fluorescent label = not defined here
readout: Kd (nM)
Give a bare numeral; the unit nM is implied.

Input: What Kd value was documented for this binder, ART[Lys(Me3)]QTARKS-{fluorescent label} (reading uncertain) [10mer H3K4me3 tracer containing a C-terminal fluorescent label] ?
Output: 83
